details: in water, 298.15 K
PROPERTY_NAME: solubility (mole fraction)

MOLECULE | RESULT_NUMBER
Cc1cnc(C(=O)O)c[n+]1[O-] | 0.0031

====

conditions: in acetonitrile, 298.15 K
PROPERTY_NAME: solubility (mole fraction)

MOLECULE | RESULT_NUMBER
Cc1cnc(C(=O)O)c[n+]1[O-] | 0.00118

====

details: in methanol, 308.15 K

MOLECULE | solubility (mole fraction)
Cc1cnc(C(=O)O)c[n+]1[O-] | 0.00443

====

conditions: in acetonitrile, 313.15 K

MOLECULE | solubility (mole fraction)
Cc1cnc(C(=O)O)c[n+]1[O-] | 0.00205

Just for reference, BigSolDB 2.1 is where these values come from.
